Data origin, for the record: PubChem BioAssay (Tox21)

target: Peroxisome proliferator-activated receptor gamma (Homo sapiens); test: qHTS assay to identify small molecule agonists of the peroxisome proliferator-activated receptor gamma (PPARg) signaling pathway (AID 743094); conditions: HEK293H PPARg-UAS-bla, beta-lactamase FRET ratio, 17 h; series mostly up to 57 µM; also: % is scaled to controls: 0 for no effect and ±100 for the full control effect
Inconclusive results are not listed. Activity calls are given as the source filed them. Calls follow the shape of the dose curve; as a rule, active = well fitted activation curve with a large enough effect in the signal ratio in the repeat runs (not every such curve was filed as active); inconclusive = weak or mixed curves, or effect the other way; inactive = no such curve, though single readings can be large or run the other way; the % refers to the signal ratio.
Observation type: activation

INSERT INTO results (substance_smiles, value) VALUES
  ('C=COCCOCCOC=C', 'inactive'),
  ('COCCOCCOCCOC', 'inactive'),
  ('O=S1(=O)CCCC1', 'inactive');

###

assay: qHTS assay for small molecules that induce genotoxicity in human embryonic kidney cells expressing luciferase-tagged ATAD5 (AID 651632); details: HEK293T ATAD5-luciferase induction, 16 h; series mostly up to 83.3 µM; also: % is scaled to controls: 0 for no effect and ±100 for the full control effect; nearly all actives have a fitted effect of over 15% in size
Records with an inconclusive call do not appear. Calls of active or inactive are those of the source. Calls follow the shape of the dose curve; as a rule, active = well fitted activation curve with a large enough effect in the repeat runs; inconclusive = weak or mixed curves; inactive = no such curve, though single readings can be large or run the other way.
Observation type: activation

INSERT INTO assay_data (compound, value) VALUES
  ('CCCCC[Si](OCC)(OCC)OCC', 'inactive'),
  ('C=COCCOCCOC=C', 'inactive'),
  ('CO[Si](CCCS)(OC)OC', 'inactive'),
  ('Cc1ccccc1C(=O)N1CC/C(=N\OS(=O)(=O)O)c2ccc(Cl)cc21', 'inactive'),
  ('O=C(O)c1c(Cl)ccc(Cl)c1Cl', 'inactive'),
  ('O=C(O)C(=O)Nc1cccc(-c2nn[nH]n2)c1', 'inactive'),
  ('CC(C)COC(=O)CCCCC(=O)OCC(C)C', 'inactive'),
  ('CCCCC(C)C(=O)O (stereo not given)', 'inactive'),
  ('CC(C)COC(=O)CC(C(=O)OCC(C)C)S(=O)(=O)O (stereo not given)', 'inactive'),
  ('CCc1nccnc1C', 'inactive'),
  ('Cc1ccccc1OCC1CO1 (stereo not given)', 'inactive'),
  ('CCOC(=O)CCCCCCCCC(=O)OCC', 'inactive'),
  ('CC(=O)OC(C)(C)Cc1ccccc1', 'inactive'),
  ('C1=C\CC/C=C\CC/1', 'inactive'),
  ('O=C1OC(=O)c2ccccc21', 'inactive'),
  ('Cc1oc(=O)oc1CN1CCN(c2cc3c(cc2F)c(=O)c(C(=O)O)c2n3C(C)S2)CC1 (stereo not given)', 'inactive'),
  ('Cc1ccccc1C', 'inactive'),
  ('C=C[C@@H](C)CCC=C(C)C', 'inactive'),
  ('CCN(CCC#N)c1ccccc1', 'inactive'),
  ('CCNC(=O)/C=C/c1cccc(Br)c1', 'inactive'),
  ('O=C(O)c1ccccc1C(=O)Nc1ccc(S(=O)(=O)Nc2nccs2)cc1', 'inactive'),
  ('CC(C)(C)NCCO', 'inactive'),
  ('O=C(/C=C/c1ccccc1)NCCO', 'inactive'),
  ('BrC/C=C/CBr', 'inactive'),
  ('Nc1c(NC/C=C\COc2cc(CN3CCCCC3)ccn2)c(=O)c1=O', 'inactive'),
  ('Cc1nc(C)nc(N2C[C@@H](C)N(c3ccnc([C@@H](C)O)n3)[C@@H](C)C2)n1', 'inactive'),
  ('CNC(=O)NC', 'inactive'),
  ('CCC(C)N (stereo not given)', 'inactive'),
  ('O=S(=O)(O)CCO', 'inactive'),
  ('Nc1ccnc(=O)[nH]1', 'inactive'),
  ('CCCCOC(=O)C(=O)OCCCC', 'inactive'),
  ('COc1ccc(NS(=O)(=O)c2ccc(N)cc2)nn1', 'inactive'),
  ('SCCSCCS', 'inactive'),
  ('C1CCN2C[C@@H]3C[C@@H](CN4CCCC[C@@H]34)[C@H]2C1', 'inactive'),
  ('NC(=O)C1(N2CCCCC2)CCN(CCCC(=O)c2ccc(F)cc2)CC1', 'inactive'),
  ('NC(=O)NC(=O)Cc1ccccc1', 'inactive'),
  ('CC1=CC[C@H](CC=O)C1(C)C', 'inactive'),
  ('Nc1cc(Cl)cc(S(=O)(=O)O)c1O', 'inactive'),
  ('CN[C@@H]1[C@H](O)[C@H](NC)[C@H]2O[C@@]3(O)C(=O)C[C@@H](C)O[C@H]3O[C@@H]2[C@H]1O', 'inactive'),
  ('O=C(O)/C=C/c1ccccc1', 'inactive');

###

assay: qHTS assay to identify small molecule antagonists of the thyroid receptor (TR) signaling pathway - cell viability counter screen (AID 743064); settings: GH3.TRE-Luc viability, CellTiter-Fluor, 24 h; series mostly up to 70.3 µM; also: % is scaled to controls: 0 for no effect and ±100 for the full control effect; nearly all actives have a fitted effect of over 50% in size
Records with an inconclusive call do not appear. Active and inactive are the calls of the source. Calls come from the whole dose curve; as a rule, active = well fitted cell-killing curve with a large enough effect in the repeat runs; inconclusive = weak or mixed curves, or effect the other way; inactive = no such curve, though single readings can be large or run the other way.
Observation type: outcome

INSERT INTO measurements (molecule, value) VALUES
  ('Nc1ccc(S(=O)(=O)NC(=O)c2ccccc2)cc1', 'inactive'),
  ('COc1ccc(NS(=O)(=O)c2ccc(N)cc2)nn1', 'inactive'),
  ('CCC1Nc2cc(Cl)c(S(N)(=O)=O)cc2S(=O)(=O)N1 (configuration not stated)', 'inactive'),
  ('C=C(C)[C@@H]1CC[C@@H](C)C[C@@H]1O', 'inactive'),
  ('Nc1cc(S(=O)(=O)O)ccc1S(=O)(=O)O', 'inactive'),
  ('O=S(=O)(O)SSS(=O)(=O)O', 'inactive'),
  ('O=C(COCCOCCOCC(=O)Nc1c(I)cc(I)c(C(=O)O)c1I)Nc1c(I)cc(I)c(C(=O)O)c1I', 'inactive'),
  ('CC(=O)OC(C)(C)Cc1ccccc1', 'inactive'),
  ('Cc1cccc(C(=O)O)c1[N+](=O)[O-]', 'inactive'),
  ('CCOC(=O)CCCCCCCCC(=O)OCC', 'inactive'),
  ('C1CCN2C[C@@H]3C[C@@H](CN4CCCC[C@@H]34)[C@H]2C1', 'inactive'),
  ('COc1ccc(/C=N/NC(=O)c2ccncc2)cc1OC', 'inactive'),
  ('CC(C)COC(=O)/C=C/c1ccccc1', 'inactive'),
  ('C=CCOCC(O)CCl (configuration not stated)', 'inactive'),
  ('N#CCCOCCOCCC#N', 'inactive'),
  ('COc1cc2c3cc1Oc1cc(ccc1O)C[C@@H]1c4c(cc(OC)c(O)c4Oc4ccc(cc4)C[C@@H]3N(C)CC2)CC[N+]1(C)C', 'inactive'),
  ('CCCCCC(=O)OCC', 'inactive'),
  ('CC(=O)Nc1ncc([N+](=O)[O-])s1', 'inactive'),
  ('CC(C)CCC(=O)CCC(C)C', 'inactive'),
  ('FC(F)(F)/C(=N\OCC1OCCO1)c1ccc(Cl)cc1', 'inactive'),
  ('CCCCC(=O)N(C)C', 'inactive'),
  ('O=C(/C=C/c1ccccc1)NCCO', 'inactive'),
  ('C[C@@H]1C[C@H]2[C@@H]3C[C@H](F)C4=CC(=O)C=C[C@]4(C)[C@@]3(F)[C@@H](O)C[C@]2(C)[C@@]1(O)C(=O)CO', 'inactive'),
  ('Cc1cccc(Nc2ccncc2S(=O)(=O)NC(=O)NC(C)C)c1', 'inactive'),
  ('CC(C)(C)c1ccc(C=O)cc1', 'inactive'),
  ('CC(C)(C)NCCO', 'inactive'),
  ('CC1CCC(C(C)(C)S)C(=O)C1 (configuration not stated)', 'inactive');

###

assay: qHTS RealTime-Glo MT Cell Viability Assay in HEK293 cells - 8 hour (AID 1224887); conditions: RealTime-Glo luminescence; series mostly up to 76.8 µM; also: top concentration of the series differs between compounds; % is scaled to controls: 0 for no effect and ±100 for the full control effect; nearly all actives have a fitted effect of over 50% in size
Results filed as inconclusive are left out. The source made the active and inactive calls. Calls come from the whole dose curve; as a rule, active = well fitted cell-killing curve with a large enough effect in the repeat runs; inconclusive = weak or mixed curves, or effect the other way; inactive = flat fitted curve, though single readings scatter.
Observation type: activity change, negative = cytotoxicity

INSERT INTO measurements (compound, value) VALUES
  ('COCCOCCOCCOC', 'inactive'),
  ('Cc1ccc(C(=O)C(=O)O)cc1C', 'inactive'),
  ('CN(C)CCOCCN(C)CCO', 'inactive'),
  ('CCCCCCCCC(=O)OCC', 'inactive'),
  ('Nc1cc(C(=O)O)ccc1Cl', 'inactive'),
  ('C[C@H](CCC(=O)O)[C@H]1CC[C@H]2[C@@H]3[C@H](O)C[C@@H]4C[C@H](O)CC[C@]4(C)[C@H]3C[C@H](O)[C@]12C', 'inactive'),
  ('C[Si]1(C)N[Si](C)(C)N[Si](C)(C)N1', 'inactive'),
  ('Cc1cccc(NC(=S)N(C)C)c1', 'inactive'),
  ('CCCCC(CC)CNC(=O)CC(C)OC(=O)CCC(=O)O (centres undefined)', 'inactive'),
  ('CCCCCCCCCCCCC1CO1 (centres undefined)', 'inactive'),
  ('CCCCCCCCCCCCC', 'inactive'),
  ('CC(C)COC(=O)/C=C/c1ccccc1', 'inactive'),
  ('SCCSCCS', 'inactive'),
  ('CCOC(=O)CCCCCCCCC(=O)OCC', 'inactive'),
  ('CCc1nccnc1C', 'inactive'),
  ('Nc1ccc(/C=C/c2ccc(N)cc2S(=O)(=O)O)c(S(=O)(=O)O)c1', '0.0792% [at 0.29 µM] (inactive)'),
  ('CCS(=O)(=O)CCn1c([N+](=O)[O-])cnc1C', 'inactive'),
  ('CCC(C)(C)C1CCC(=O)CC1', 'inactive'),
  ('CCCCOC(=O)C(C)OC(=O)CCC (centres undefined)', 'inactive'),
  ('Cc1nc(C)nc(N2C[C@@H](C)N(c3ccnc([C@@H](C)O)n3)[C@@H](C)C2)n1', 'inactive'),
  ('NCCc1ccn[nH]1', 'inactive'),
  ('CC(Cl)COP(=O)(OCC(C)Cl)OCC(C)Cl (centres undefined)', 'inactive'),
  ('C=CCOCC(O)CCl (centres undefined)', 'inactive'),
  ('NC(=O)NC(=O)Cc1ccccc1', 'inactive'),
  ('O=C(O)C(=O)Nc1cccc(-c2nn[nH]n2)c1', 'inactive'),
  ('C=CCOc1c(Br)cc(C(C)(C)c2cc(Br)c(OCC=C)c(Br)c2)cc1Br', 'inactive'),
  ('CCNC(=O)/C=C/c1cccc(Br)c1', 'inactive'),
  ('COc1ccc(/C=N/NC(=O)c2ccncc2)cc1OC', 'inactive'),
  ('O=C(O)CCNC(=O)c1ccccc1', 'inactive');
